Origin of the recorded values: a melting point compilation (Tetko et al.; mined from patent text by program, amines drawn as free bases though some values may be those of a salt)

measurement_label: melting point

For orientation, consider the following solved cases.
CCOC(=O)c1[nH]c2ccc(C)cc2c1Sc1ccc(Cl)cc1 : 158 to 160 °C
COC(=O)c1ccc(=O)n(CCNC(=O)c2cnc3ccccc3c2)c1 : 174 to 175 °C
CN1NC(C2CCCC2)=CC1C(=O)O (centres undefined) : 123 to 128 °C
O=C(Nc1n[nH]c2cc(Cl)ccc12)c1ccccc1 : 188 °C
CC(C)C(=O)OC1C(n2ccc(=O)[nH]c2=O)OC(COC(=O)c2ccc(Cl)cc2)C1(C#C[Si](C)(C)C)OC(=O)C(C)C (centres undefined) : 160 to 161 °C

Moving on to another compound below.
Entry `CCCCOc1c(CNC(=O)OC(C)(C)C)n(CC(C)C)c(=O)c2ccc(C(N)=S)cc12` ; melting point = 189 to 190 °C
